Where do these numbers come from? They come from the supplement of paper PMC12042874.

assay: amyloid nucleation score (Sup35N fusion, yeast selection) (log enrichment); library NNK2; higher = more nucleation; inactive = no reads after selection;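 note: zero at mode of non-aggregating sequences after 7 days selection at 30°C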
parameter: amyloid nucleation score
// keep it numeric: no unit symbol after the value

-- ask # lookup: amyloid nucleation score of `LSCHSDITILHDYTNLLSFI`
-- reply -0.007

-- ask # lookup: amyloid nucleation score of `NSYSGAVLT`
-- reply -0.464

-- ask # lookup: amyloid nucleation score of `EEYFDWSMKCKLIYINRVPL`
-- reply -0.358

-- ask # lookup: amyloid nucleation score of `CYRYVGCSTYSTDQVVCAYK`
-- reply 6.01

====

assay: amyloid nucleation score (Sup35N fusion, yeast selection) (log enrichment); library NNK2; higher = more nucleation; inactive = no reads after selection
parameter: amyloid nucleation score

Below, 4 sequences whose answers are already recorded.
AWVYSMRQVYQLNCLDQIMY ... inactive
TLYYIVRHQICANFYRMYNG ... inactive
VRWMITHNFRVF ... inactive
CDYEYGCQNKRGFRMLLKSW ... inactive

-- ask # lookup: amyloid nucleation score of `NQSESFHGLDHFTRNHGGCR`
-- reply inactive

====

assay: amyloid nucleation score (Sup35N fusion, yeast selection) (log enrichment); library NNK1; higher = more nucleation; inactive = no reads after selection
parameter: amyloid nucleation score
// keep it numeric: no unit symbol after the value

-- ask # lookup: amyloid nucleation score of `YNPNGLTMGCGHKYTVEHTT`
-- reply 0.128

-- ask # lookup: amyloid nucleation score of `MRDTFFLDRMQITLCSW`
-- reply 0.306

-- ask # lookup: amyloid nucleation score of `YHVYSVRSNVWALLKIRLV`
-- reply 1.14

-- ask # lookup: amyloid nucleation score of `LGSRFMRV`
-- reply 0.635

-- ask # lookup: amyloid nucleation score of `VKVCSSSMRFNVL`
-- reply 0.689

-- ask # lookup: amyloid nucleation score of `CVFRSYQWWSSHLYFVNVCN`
-- reply 0.667

-- ask # lookup: amyloid nucleation score of `NHSNTCEWRSCRP`
-- reply 0.551

-- ask # lookup: amyloid nucleation score of `TFKYFDSLTLPDLYIVVHGS`
-- reply 0.037

-- ask # lookup: amyloid nucleation score of `YYVMRYDASLYDKRKERVFG`
-- reply 0.851

-- ask # lookup: amyloid nucleation score of `RTYSFC`
-- reply -0.41

-- ask # lookup: amyloid nucleation score of `THFMYIVELERGRLFGCSVR`
-- reply 0.115

-- ask # lookup: amyloid nucleation score of `YKNVCSDSVTLRKPGRVVLL`
-- reply -0.278

-- ask # lookup: amyloid nucleation score of `PTRPMTTELRRKVRRPALDG`
-- reply -0.139

-- ask # lookup: amyloid nucleation score of `GIVGSG`
-- reply 2.29

-- ask # lookup: amyloid nucleation score of `SFYYIWRGLVTSED`
-- reply -0.779

-- ask # lookup: amyloid nucleation score of `MFYLTFYNLRIND`
-- reply 6.01

-- ask # lookup: amyloid nucleation score of `GRRRSDQASTVRRSLCEGMA`
-- reply 0.451

-- ask # lookup: amyloid nucleation score of `YLVVPERLVANRMVS`
-- reply -1.68

-- ask # lookup: amyloid nucleation score of `DSDLRLNLCELTFVPWRRSG`
-- reply 2.86

-- ask # lookup: amyloid nucleation score of `PFVARQHMNPFTVVGTNLCH`
-- reply -0.376

-- ask # lookup: amyloid nucleation score of `VKYWFVVGVVLSWFTER`
-- reply -0.304

-- ask # lookup: amyloid nucleation score of `FSMSILENRYTTFELSGAYQ`
-- reply -0.722

-- ask # lookup: amyloid nucleation score of `LHAYTLSYGLLVLSARSHEL`
-- reply -0.01

-- ask # lookup: amyloid nucleation score of `RNSSGRGERLLVQYAQKKKR`
-- reply -0.136

-- ask # lookup: amyloid nucleation score of `YVDLFIMPIACGTSVMHLNL`
-- reply 5.46

-- ask # lookup: amyloid nucleation score of `YTSDKGKLYCGLMMG`
-- reply -0.045

-- ask # lookup: amyloid nucleation score of `GSMMWSMTADKLKFAGSVVC`
-- reply 0.889

-- ask # lookup: amyloid nucleation score of `SAAYQALLTNSYFSLFDVSW`
-- reply 0.823

-- ask # lookup: amyloid nucleation score of `HLSEFAVGVCEVY`
-- reply 1.27

-- ask # lookup: amyloid nucleation score of `ILSYVTVDPAKVNYIFREWF`
-- reply -1.03

-- ask # lookup: amyloid nucleation score of `GPYCHGWNLKNERAVSLRG`
-- reply -0.647

-- ask # lookup: amyloid nucleation score of `VGEQPYFGVFTTRYVMARYA`
-- reply 0.487

-- ask # lookup: amyloid nucleation score of `LVLSWSWICFL`
-- reply 7.39

-- ask # lookup: amyloid nucleation score of `GGIYSLSMNIVWATGCL`
-- reply -0.361

-- ask # lookup: amyloid nucleation score of `RQDARE`
-- reply 0.004

-- ask # lookup: amyloid nucleation score of `FSGLCRSTPGI`
-- reply -0.469

-- ask # lookup: amyloid nucleation score of `SNGCPFDTIDQAKVGTVV`
-- reply 0.861

-- ask # lookup: amyloid nucleation score of `TFCCIVSFF`
-- reply 7.2

-- ask # lookup: amyloid nucleation score of `GLVACQAMSNV`
-- reply -0.138

-- ask # lookup: amyloid nucleation score of `FGYNFRPHHCGCTRNLNSQM`
-- reply 0.115

-- ask # lookup: amyloid nucleation score of `RSLFMAQVGHMWGRNVIRGI`
-- reply -0.29

-- ask # lookup: amyloid nucleation score of `GKLTYLPRVKNLHLHFSFEN`
-- reply -0.169

-- ask # lookup: amyloid nucleation score of `YLPYVSLQSVHWIMVGWLN`
-- reply -0.163

-- ask # lookup: amyloid nucleation score of `NIYVGSYTLYTTN`
-- reply 5.39

-- ask # lookup: amyloid nucleation score of `IQYDSFNVRFDIATAIDYFA`
-- reply -0.12

-- ask # lookup: amyloid nucleation score of `AYFYNEKNCYSHGKYVPYSF`
-- reply -0.797

-- ask # lookup: amyloid nucleation score of `MPLKVSSMDLGRIKE`
-- reply -0.333

====

experiment: amyloid nucleation score (Sup35N fusion, yeast selection) (log enrichment); library NNK2; higher = more nucleation; inactive = no reads after selection
parameter: amyloid nucleation score

YPNSLYFRPYAFILTEMSHH ... inactive
LKTGSF ... inactive
KYGNFVFTFLLINPF ... inactive

====

test: amyloid nucleation score (Sup35N fusion, yeast selection) (log enrichment); library NNK1; higher = more nucleation; inactive = no reads after selection
Label 1 when amyloid nucleation score is at or above 0.1; otherwise label 0.

-- ask Kindly determine if amyloid nucleation score recorded for `LWFINVLNK` is above or exactly 0.1.
-- reply 1

-- ask Kindly determine if amyloid nucleation score recorded for `LYSCMRVVATATVSGGLVIE` is above or exactly 0.1.
-- reply 0

-- ask Kindly determine if amyloid nucleation score recorded for `RVYRYLPYRYERCLDL` is above or exactly 0.1.
-- reply 0

-- ask Kindly determine if amyloid nucleation score recorded for `QNIGGFMARFIIFILLYDHW` is above or exactly 0.1.
-- reply 1

-- ask Kindly determine if amyloid nucleation score recorded for `VVWWGEQHGLYSYFGHGIGI` is above or exactly 0.1.
-- reply 1

-- ask Kindly determine if amyloid nucleation score recorded for `CLGVSSGRLKCYVNYYCDNW` is above or exactly 0.1.
-- reply 1

====

test: amyloid nucleation score (Sup35N fusion, yeast selection) (log enrichment); library NNK3; higher = more nucleation; inactive = no reads after selection
parameter: amyloid nucleation score

Below, 5 substances whose answers are already recorded.
SSVTCLLSSLRCIPRGVVFM ... inactive
HFFNPCQGHRNKVPRRAS ... inactive
FYYSVHFLF ... inactive
YLTVCRGRNTEGYGWEVNS ... inactive
RIHDNVPSIVWFWEPPHPRH ... inactive

-- ask # lookup: amyloid nucleation score of `WSSTRLPSMSPCGFIHQGYI`
-- reply inactive

====

test: amyloid nucleation score (Sup35N fusion, yeast selection) (log enrichment); library NNK2; higher = more nucleation; inactive = no reads after selection
Hi there, I'd appreciate the recorded amyloid nucleation score for every entry that follows.
// keep it numeric: no unit symbol after the value

-- ask # lookup: amyloid nucleation score of `FSMLRVYHLRPDLRVFCCAF`
-- reply -0.108

-- ask # lookup: amyloid nucleation score of `LWPCSCFVRRCYECFEGDAG`
-- reply 3.2

-- ask # lookup: amyloid nucleation score of `HYLAFVCIIFSLLRLITQPM`
-- reply 2.53

====

assay: amyloid nucleation score (Sup35N fusion, yeast selection) (log enrichment); library NNK1; higher = more nucleation; inactive = no reads after selection
parameter: amyloid nucleation score
// keep it numeric: no unit symbol after the value

-- ask # lookup: amyloid nucleation score of `FIASGPVHLRLYAKFNNFHL`
-- reply 8.64

-- ask # lookup: amyloid nucleation score of `FRKGDILRTFSMFKSKYTVG`
-- reply 0.839

-- ask # lookup: amyloid nucleation score of `LRDTRAWVLN`
-- reply -0.295

-- ask # lookup: amyloid nucleation score of `WLVCNEGSIMDLASGLGLIR`
-- reply 0.561

-- ask # lookup: amyloid nucleation score of `NFKNKIMGALS`
-- reply -0.548

-- ask # lookup: amyloid nucleation score of `SMLAFQMITKQRQHSFWMWT`
-- reply -0.766

-- ask # lookup: amyloid nucleation score of `WLSPQG`
-- reply 0.453

-- ask # lookup: amyloid nucleation score of `GSICSVVVTMLVFSNKVTSL`
-- reply -0.353

-- ask # lookup: amyloid nucleation score of `YMLMKGSVRYH`
-- reply 2.49

-- ask # lookup: amyloid nucleation score of `QTFSNPFFVLYLSNRLIPKV`
-- reply 1.82

-- ask # lookup: amyloid nucleation score of `IWMFISAVASFNITRSWCYL`
-- reply 2.02

-- ask # lookup: amyloid nucleation score of `RRGVYSKVFAENHVLCMLSL`
-- reply 4.01

-- ask # lookup: amyloid nucleation score of `NWRQEYVFAY`
-- reply -1.37

-- ask # lookup: amyloid nucleation score of `SVLNNLAAPDKARLRPCNWV`
-- reply 0.379

-- ask # lookup: amyloid nucleation score of `VRTLRTLAGLRRLLINKS`
-- reply -0.137
